Biological target: full length human PAR-2 (human, UniProt P55085 26-397)
Sequence (P55085 26-397 G138A limits assumed): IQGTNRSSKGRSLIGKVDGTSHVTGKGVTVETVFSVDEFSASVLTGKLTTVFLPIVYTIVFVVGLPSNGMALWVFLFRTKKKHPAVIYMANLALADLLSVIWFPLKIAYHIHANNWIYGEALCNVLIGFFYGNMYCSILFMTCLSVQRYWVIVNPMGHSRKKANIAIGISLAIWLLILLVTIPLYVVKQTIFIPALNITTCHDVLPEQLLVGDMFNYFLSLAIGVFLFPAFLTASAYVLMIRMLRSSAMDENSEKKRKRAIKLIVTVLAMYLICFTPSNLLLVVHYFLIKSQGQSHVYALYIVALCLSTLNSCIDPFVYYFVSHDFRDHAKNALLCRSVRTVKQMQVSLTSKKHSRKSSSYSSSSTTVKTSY
Experiment: cell-based or functional assay

- Binder: "H4H591N (antibody, human IgG4, V domains shown, also called H2M591N variable regions) VH: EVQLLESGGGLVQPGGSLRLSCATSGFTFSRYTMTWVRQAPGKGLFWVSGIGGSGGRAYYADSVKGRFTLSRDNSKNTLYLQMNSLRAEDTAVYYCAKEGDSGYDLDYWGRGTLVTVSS VL: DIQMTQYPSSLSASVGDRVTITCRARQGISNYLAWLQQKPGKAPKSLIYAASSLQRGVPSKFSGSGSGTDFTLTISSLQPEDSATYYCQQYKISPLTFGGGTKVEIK"
  Unit Spec: "nM"
  IC50, NF-kB-luciferase, 200 nM Factor Xa: 74.6
